These data points were gathered from patent US11053196B2.

System: DENV-2 strain 16681
experiment description: Tetravalent RT-qPCR assay, serotype 2
Assay type: cell-based
measurement setup: Dengue virus, DENV2, 72 h; RT-qPCR serotype 2 16681, Vero cells, day 3
Binary label based on EC50 with cut-off 0.2 nM: below gives True, not below gives False.

[
  {
    "molecule": "COc1cc(NC(C(=O)N2CCc3cc(F)c(C(F)(F)F)cc32)c2ccc(Cl)cc2)cc(OCCCC(=O)O)c1 (single isomer, unassigned)",
    "class name": "True"
  },
  {
    "molecule": "COc1cc(NC(C(=O)N2CCc3ccc(OC(F)(F)F)cc32)c2ccc(F)cc2OC)cc(OCCCC(=O)O)c1 (single isomer, unassigned)",
    "class name": "False"
  },
  {
    "molecule": "COc1cc(NC(C(=O)N2CCc3cc(F)c(OC(F)(F)F)cc32)c2ccc(Cl)cc2)cc(OCCCC(=O)O)c1 (single isomer, unassigned)",
    "class name": "False"
  },
  {
    "molecule": "[2H]C(Nc1cc(OC)cc(OCCCC(=O)O)c1)(C(=O)N1CCc2ccc(OC(F)(F)F)cc21)c1ccc(Cl)cc1 (single isomer, unassigned)",
    "class name": "True"
  },
  {
    "molecule": "COc1cc(NC(C(=O)N2CCc3sc(C(F)(F)F)cc32)c2ccc(Cl)cc2)cc(OCCCC(=O)O)c1 (single isomer, unassigned) [Compound 10A]",
    "class name": "True"
  },
  {
    "molecule": "COc1cc(NC(C(=O)N2CCc3c(C)cc(C(F)(F)F)cc32)c2ccc(Cl)cc2)cc(OCCCC(=O)O)c1 (single isomer, unassigned)",
    "class name": "True"
  },
  {
    "molecule": "COc1cc(NC(C(=O)N2CCc3ccc(S(F)(F)(F)(F)F)cc32)c2ccc(Cl)cc2)cc(OCCCC(=O)O)c1 (single isomer, unassigned)",
    "class name": "True"
  },
  {
    "molecule": "COc1cc(NC(C(=O)N2CCc3c(C)cc(OC(F)(F)F)cc32)c2ccc(Cl)cc2)cc(OCCCC(=O)O)c1 (single isomer, unassigned)",
    "class name": "True"
  }
]
